This collection of values is drawn from ChEMBL document CHEMBL1201862.

System: OVCAR-3
procedureDetails: NCI tumour cell line growth inhibition, 48 h
The source made the active and inactive calls. Rule as the data show it: active = GI50 up to about 1.1 µM and inactive = higher.
measureName: GI50

Would you please look over these solved cases?
compound | assaySystem | GI50
COC(=O)c1ccccc1CC1Cc2cc3c(cc2C1)CCC3 | OVCAR-3 | 32.7 µM (inactive)
CN(C)C(=S)/N=c1\ss/c(=N\C(=S)N(C)C)n1-c1ccc(Cl)cc1 | OVCAR-3 | > 100 µM (inactive)
CN(C)c1cccc(NC2=NCCO2)c1 | OVCAR-3 | 59.4 µM (inactive)

Input: Which GI50 is listed for O=S1(=O)C(=C(c2ccccc2)c2ccccc2)S(=O)(=O)c2ccccc21 ?
Output: > 57.9 µM (inactive)

Input: // same read-out, input: CC(=O)c1sc(Nc2nnc(-c3ccc(-c4nnc(Nc5nc(C)c(C(C)=O)s5)o4)cc3)o2)nc1C
Output: > 100 µM (inactive)

Input: Can you handle CC(C)OP(=O)(OC(C)C)/C(=N/Nc1ccc([N+](=O)[O-])cc1)NN next?
Output: > 100 µM (inactive)

Input: Subsequent entry: Cc1ccc(S(=O)(=O)NC(CO)C(=O)O)cc1 (stereo not given)
Output: > 100 µM (inactive)

Input: Next: Clc1cc(Cl)ncn1
Output: > 100 µM (inactive)

Input: And O=C1C2C(C(=O)N1c1ccccc1)C1c3ccccc3C2C2C(=O)N(c3ccccc3)C(=O)C21 (stereo not given) ?
Output: 20.7 µM (inactive)

Input: What do we get for C[C@H]1[C@H](N2CCCC2)O[Si](C(C)(C)C)(C(C)(C)C)[C@@H]1C ?
Output: > 100 µM (inactive)
